Test: NCI Yeast Anticancer Drug Screen. Data for the sgs1 mgt1 strain (AID 161);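 further: 0% = growth of cultures given vehicle only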
Conditions: S. cerevisiae sgs1 mgt1 strain, at 50.0 µM (retest, dose inferred, filed as 5.0), active compounds read high
Description: Growth inhibition of yeast strains with defined genetic alterations is measured as a screen for potential anti-cancer activity. Selected strains with alterations in DNA damage repair or cell cycle control were exposed to compounds and growth inhibition was measured relative to vehicle treated controls. The strain used in this assay is sgs1 mgt1
The panel holds about 79,000 compounds, 15% with a hit somewhere; the sample as a whole holds those more often.
measure: growth inhibition (%)
Your answer is read as %, so omit the unit and give the number.

Request: Would you mind telling me what growth inhibition value was observed for C=CCCCCO/N=C/c1c2c(O)c3c(O)c(C)c4c(c3c1O)C(=O)C(C)(O/C=C/C(OC)C(C)C(OC(C)=O)C(C)C(O)C(C)C(O)C(C)/C=C/C=C(\C)C(=O)N2)O4 (stereo not given) ?
Result: 87

Request: Would you mind telling me what growth inhibition value was observed for CC(C)c1ccc2c(c1)CC[C@@H]1[C@](C)(CO)CCC[C@]21C ?
Result: 99

Request: Would you mind telling me what growth inhibition value was observed for CC(=O)CCCOC(C)=O ?
Result: 78

Request: Would you mind telling me what growth inhibition value was observed for CCOC(=O)c1cc(C)c(O)c(C(=O)OCC)c1 ?
Result: 22

Request: Would you mind telling me what growth inhibition value was observed for COC1/C=C\OC2(C)Oc3c(C)c(O)c4c(c3C2=O)C2=NC(C)(C)N(c3ccccc3)C2=C(NC(=O)/C(C)=C\C=C\C(C)C(O)C(C)C(O)C(C)C(OC(C)=O)C1C)C4=O (stereo not given) ?
Result: 85

---

assay: NCI Yeast Anticancer Drug Screen. Data for the mlh1 rad18 strain (AID 175); settings: S. cerevisiae mlh1 rad18 strain growth inhibition; at 50.0 µM (retest, dose inferred, filed as 5.0); active compounds read high
About 79,000 compounds went through this panel and 15% of them were active in at least one assay; those are over-represented in the sample as a whole. Active and inactive are the calls of the source. Cut-off read from the data, not from the text of the source: active = growth inhibition above about 70%; inactive = the rest.
measure: growth inhibition

Request: Would you mind telling me what growth inhibition value was observed for Cc1cc(=O)n(C)c2c(C)cccc12 ?
Result: -107% (inactive)

Request: Would you mind telling me what growth inhibition value was observed for CCCCC(CC)CCC(C)OC(=O)C(O)c1ccccc1 (stereo unspecified) ?
Result: 90% (active)

Request: Would you mind telling me what growth inhibition value was observed for Cc1cc(C)nc(NS(=O)(=O)c2ccc(NC(=O)c3cccnc3Nc3cccc(Cl)c3)cc2)n1 ?
Result: 53% (inactive)

Request: Would you mind telling me what growth inhibition value was observed for Nc1ccc2c(SCC(=O)Nc3ccccc3-c3ccccc3NC(=O)CSc3c4ccccc4nc4cc(N)ccc34)c3ccccc3nc2c1 ?
Result: 96% (active)

Request: Would you mind telling me what growth inhibition value was observed for CCCCCN1C(=O)CC(C(=O)OCC)=C1C ?
Result: -10% (inactive)

Request: Would you mind telling me what growth inhibition value was observed for C/C(O)=C(/C=N\C(=S)Nc1ccc(Cl)c(Cl)c1)C(=O)Nc1ccccc1C ?
Result: 22% (inactive)

Request: Would you mind telling me what growth inhibition value was observed for O=C(CCCCCCCCCCc1ccccc1)c1c(O)cccc1O ?
Result: 95% (active)

Request: Would you mind telling me what growth inhibition value was observed for CC(C)C(Sc1nc(-c2ccccc2)c(-c2ccccc2)[nH]1)C(=O)NN (stereo unspecified) ?
Result: 96% (active)

Request: Would you mind telling me what growth inhibition value was observed for CN(C)CCNc1ccc2nnn3c4ccc(O)cc4c(=O)c1c23 ?
Result: 15% (inactive)

Request: Would you mind telling me what growth inhibition value was observed for CN(C)N=Nc1ccc2[nH]c(=O)[nH]c2c1 ?
Result: 19% (inactive)

Request: Would you mind telling me what growth inhibition value was observed for CCCCN(CCCC)CCC(O)c1cc2c(c3ccccc13)CCCC2 (stereo unspecified) ?
Result: 99% (active)

Request: Would you mind telling me what growth inhibition value was observed for CC[C@@H](C(=O)[C@@H](C)[C@@H](O)[C@H](C)CCc1ccc(C)c(O)c1C(=O)O)[C@H]1O[C@](CC)([C@H]2CC[C@](O)(CC)[C@H](C)O2)C[C@@H]1C ?
Result: 98% (active)

Request: Would you mind telling me what growth inhibition value was observed for COC1C(N)C(OC2C(Oc3cccc4c(O)c5c(=O)oc6ccc(C)c7c(=O)oc(c34)c5c67)OC(C)C(O)C2(C)O)OC(C)C1O (stereo unspecified) ?
Result: 15% (inactive)

Request: Would you mind telling me what growth inhibition value was observed for COc1ccc(N=Nc2ccc3oc(=O)c(C(=O)Nc4ccc(OC)cc4)cc3c2)cc1 ?
Result: 97% (active)

Request: Would you mind telling me what growth inhibition value was observed for CCNC(=O)COc1ccc(Cl)cc1Cl ?
Result: 2% (inactive)

Request: Would you mind telling me what growth inhibition value was observed for C[C@]12CC[C@@H]3c4cc(OCC(F)(F)F)c(O)cc4CC[C@H]3[C@@H]1CC[C@@H]2O ?
Result: 98% (active)

Request: Would you mind telling me what growth inhibition value was observed for BrC1=CC(Br)=C2N=C(C(Br)(Br)Br)N=C3N=C(C(Br)(Br)Br)N=C1N32 ?
Result: 97% (active)

Request: Would you mind telling me what growth inhibition value was observed for CCOC(=O)/C=C\c1c(Cl)n(-c2ccccc2)c(=O)n(-c2ccccc2)c1=O ?
Result: 98% (active)

Request: Would you mind telling me what growth inhibition value was observed for COC(=O)c1c(/C(=N/Nc2ccc([N+](=O)[O-])cc2)[N+](=O)[O-])ssc1=N ?
Result: 54% (inactive)

Request: Would you mind telling me what growth inhibition value was observed for C#CCOC(=O)Nc1nc2ccc(SC#N)cc2s1 ?
Result: 96% (active)

Request: Would you mind telling me what growth inhibition value was observed for COc1cc2c(cc1O)C1C(O)C(O)C=C3CCN(C2)C31 (stereo unspecified) ?
Result: 97% (active)

Request: Would you mind telling me what growth inhibition value was observed for O=C(OCCCN1CCCC1)C(c1ccccc1)C1CCCCC1 (stereo unspecified) ?
Result: 95% (active)

Request: Would you mind telling me what growth inhibition value was observed for CCCC(=O)c1ccc(OC)cc1 ?
Result: 61% (inactive)

Request: Would you mind telling me what growth inhibition value was observed for CN(c1ccccc1)N(C)c1ccccc1 ?
Result: 26% (inactive)

Request: Would you mind telling me what growth inhibition value was observed for COc1cccc(C2c3cc4c(cc3OC(N3CCCC3)C2c2ccccc2)OCO4)c1O (stereo unspecified) ?
Result: 98% (active)

Request: Would you mind telling me what growth inhibition value was observed for N#Cc1ccc(C(F)(F)F)cc1[N+](=O)[O-] ?
Result: 99% (active)

Request: Would you mind telling me what growth inhibition value was observed for CCCCCCCCCCCCCCCCn1cc(C(O)CN(C)C)c2ccccc21 (stereo unspecified) ?
Result: 98% (active)

Request: Would you mind telling me what growth inhibition value was observed for COc1ccc(N2CCN(CC(O)COc3cc4c(c5c3CCCC5)CCCC4)CC2)cc1 (stereo unspecified) ?
Result: 96% (active)

Request: Would you mind telling me what growth inhibition value was observed for Cc1ccc2c(c1)C1(SC(C)C(=O)N1c1ccc(F)cc1)C(=O)N2 (stereo unspecified) ?
Result: 99% (active)

Request: Would you mind telling me what growth inhibition value was observed for CCN(CC)c1ccc(NC(C(=O)c2ccccc2)c2ccc3c(c2)OCO3)cc1 (stereo unspecified) ?
Result: 12% (inactive)

Request: Would you mind telling me what growth inhibition value was observed for O=C1C=CC(=O)c2ccc(=O)ccc21 ?
Result: 98% (active)

Request: Would you mind telling me what growth inhibition value was observed for C/C=C(\C)[C@H](O)C(COCc1ccccc1)NS(=O)(=O)c1ccc(C)cc1 (stereo partly specified) ?
Result: 36% (inactive)

Request: Would you mind telling me what growth inhibition value was observed for Oc1cccc(Oc2cccc(Oc3ccccc3)c2)c1 ?
Result: 99% (active)

Request: Would you mind telling me what growth inhibition value was observed for O=C(CCl)[O][Bi]([O]C(=O)CCl)([c]1ccccc1)([c]1ccccc1)[c]1ccccc1 ?
Result: 71% (active)

Request: Would you mind telling me what growth inhibition value was observed for Cc1ccnc(NS(=O)(=O)c2ccc(N=Cc3c4ccccc4nc4cc(Cl)ccc34)cc2)n1 ?
Result: 11% (inactive)

Request: Would you mind telling me what growth inhibition value was observed for O=C(CCN1CCCCC1)N1CCc2c([nH]c3ccccc23)C1c1cccnc1 (stereo unspecified) ?
Result: -4% (inactive)
